Attribution: patent US20160297884A1

Please provide measured koff for the entries that follow.
Molecular target: T1, Human BCMA (human, UniProt Q02223 1-54, limits assumed)
T1 construct: also called huBCMA; B-cell maturation antigen
T1 sequence (looked up): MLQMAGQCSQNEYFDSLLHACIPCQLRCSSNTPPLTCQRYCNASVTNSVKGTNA
Assay: SPR, IgG immobilised, human BCMA analyte

Item A02_Rd4_0.6nM_C26 (antibody, V domains shown, IgG) VH: EVQLLESGGGLVQPGGSLRLSCAASGFTFSSYAMNWVRQAPGKGLEWVSAILMSGGSTYYADSVKGRFTISRDNSKNTLYLQMNSLRAEDTAVYYCARYWPMSLWGQGTLVTVSS VL: EIVLTQSPGTLSLSPGERATLSCGPSQSVSSSYLAWYQQKPGQAPRLLMYDASIRATGIPDRFSGSGSGTDFTLTISRLEPEDFAVYYCQQYQSWPLTFGQGTKVEIK has what recorded koff? 0.000443 s⁻¹

# lookup: koff of P5C1_VHVL (antibody, V domains shown, IgG; also called PC1) VH: EVQLLESGGGLVQPGGSLRLSCAASGFTFSSYPMSWVRQAPGKGLEWVSAIGGSGGSTYYADSVKGRFTISRDNSKNTLYLQMNSLRAEDTAVYYCARYWPMDSWGQGTLVTVSS VL: EIVLTQSPGTLSLSPGERATLSCRASQSVSSTYLAWYQQKPGQAPRLLIYDASSRAPGIPDRFSGSGSGTDFTLTISRLEPEDFAVYYCQQYSTSPLTFGQGTKVEIK 0.0692 s⁻¹

Look at this binder and give its reported koff. COMBO_Rd4_0.6nM_C02 (antibody, V domains shown, IgG) VH: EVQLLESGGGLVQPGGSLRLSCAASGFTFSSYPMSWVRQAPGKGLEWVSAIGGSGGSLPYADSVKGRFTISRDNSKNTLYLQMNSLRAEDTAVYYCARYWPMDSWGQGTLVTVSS VL: EIVLTQSPGTLSLSPGERATLSCRASIAVSSTYLAWYQQKPGQAPRLLMYDASIRATGIPDRFSGSGSGTDFTLTISRLEPEDFAVYYCQQYMVWPLTFGQGTKVEIK 0.000185 s⁻¹
